Molecular target: G2019S LRRK2 (Homo sapiens, UniProt Q5S007, G2019S)
Construct: expressed in transfected cells; host or cells: HEK293 (ATCC CRL-1573), transient transfection, mammalian expression vector with ubiquitin promoter
Sequence (Q5S007 whole entry G2019S): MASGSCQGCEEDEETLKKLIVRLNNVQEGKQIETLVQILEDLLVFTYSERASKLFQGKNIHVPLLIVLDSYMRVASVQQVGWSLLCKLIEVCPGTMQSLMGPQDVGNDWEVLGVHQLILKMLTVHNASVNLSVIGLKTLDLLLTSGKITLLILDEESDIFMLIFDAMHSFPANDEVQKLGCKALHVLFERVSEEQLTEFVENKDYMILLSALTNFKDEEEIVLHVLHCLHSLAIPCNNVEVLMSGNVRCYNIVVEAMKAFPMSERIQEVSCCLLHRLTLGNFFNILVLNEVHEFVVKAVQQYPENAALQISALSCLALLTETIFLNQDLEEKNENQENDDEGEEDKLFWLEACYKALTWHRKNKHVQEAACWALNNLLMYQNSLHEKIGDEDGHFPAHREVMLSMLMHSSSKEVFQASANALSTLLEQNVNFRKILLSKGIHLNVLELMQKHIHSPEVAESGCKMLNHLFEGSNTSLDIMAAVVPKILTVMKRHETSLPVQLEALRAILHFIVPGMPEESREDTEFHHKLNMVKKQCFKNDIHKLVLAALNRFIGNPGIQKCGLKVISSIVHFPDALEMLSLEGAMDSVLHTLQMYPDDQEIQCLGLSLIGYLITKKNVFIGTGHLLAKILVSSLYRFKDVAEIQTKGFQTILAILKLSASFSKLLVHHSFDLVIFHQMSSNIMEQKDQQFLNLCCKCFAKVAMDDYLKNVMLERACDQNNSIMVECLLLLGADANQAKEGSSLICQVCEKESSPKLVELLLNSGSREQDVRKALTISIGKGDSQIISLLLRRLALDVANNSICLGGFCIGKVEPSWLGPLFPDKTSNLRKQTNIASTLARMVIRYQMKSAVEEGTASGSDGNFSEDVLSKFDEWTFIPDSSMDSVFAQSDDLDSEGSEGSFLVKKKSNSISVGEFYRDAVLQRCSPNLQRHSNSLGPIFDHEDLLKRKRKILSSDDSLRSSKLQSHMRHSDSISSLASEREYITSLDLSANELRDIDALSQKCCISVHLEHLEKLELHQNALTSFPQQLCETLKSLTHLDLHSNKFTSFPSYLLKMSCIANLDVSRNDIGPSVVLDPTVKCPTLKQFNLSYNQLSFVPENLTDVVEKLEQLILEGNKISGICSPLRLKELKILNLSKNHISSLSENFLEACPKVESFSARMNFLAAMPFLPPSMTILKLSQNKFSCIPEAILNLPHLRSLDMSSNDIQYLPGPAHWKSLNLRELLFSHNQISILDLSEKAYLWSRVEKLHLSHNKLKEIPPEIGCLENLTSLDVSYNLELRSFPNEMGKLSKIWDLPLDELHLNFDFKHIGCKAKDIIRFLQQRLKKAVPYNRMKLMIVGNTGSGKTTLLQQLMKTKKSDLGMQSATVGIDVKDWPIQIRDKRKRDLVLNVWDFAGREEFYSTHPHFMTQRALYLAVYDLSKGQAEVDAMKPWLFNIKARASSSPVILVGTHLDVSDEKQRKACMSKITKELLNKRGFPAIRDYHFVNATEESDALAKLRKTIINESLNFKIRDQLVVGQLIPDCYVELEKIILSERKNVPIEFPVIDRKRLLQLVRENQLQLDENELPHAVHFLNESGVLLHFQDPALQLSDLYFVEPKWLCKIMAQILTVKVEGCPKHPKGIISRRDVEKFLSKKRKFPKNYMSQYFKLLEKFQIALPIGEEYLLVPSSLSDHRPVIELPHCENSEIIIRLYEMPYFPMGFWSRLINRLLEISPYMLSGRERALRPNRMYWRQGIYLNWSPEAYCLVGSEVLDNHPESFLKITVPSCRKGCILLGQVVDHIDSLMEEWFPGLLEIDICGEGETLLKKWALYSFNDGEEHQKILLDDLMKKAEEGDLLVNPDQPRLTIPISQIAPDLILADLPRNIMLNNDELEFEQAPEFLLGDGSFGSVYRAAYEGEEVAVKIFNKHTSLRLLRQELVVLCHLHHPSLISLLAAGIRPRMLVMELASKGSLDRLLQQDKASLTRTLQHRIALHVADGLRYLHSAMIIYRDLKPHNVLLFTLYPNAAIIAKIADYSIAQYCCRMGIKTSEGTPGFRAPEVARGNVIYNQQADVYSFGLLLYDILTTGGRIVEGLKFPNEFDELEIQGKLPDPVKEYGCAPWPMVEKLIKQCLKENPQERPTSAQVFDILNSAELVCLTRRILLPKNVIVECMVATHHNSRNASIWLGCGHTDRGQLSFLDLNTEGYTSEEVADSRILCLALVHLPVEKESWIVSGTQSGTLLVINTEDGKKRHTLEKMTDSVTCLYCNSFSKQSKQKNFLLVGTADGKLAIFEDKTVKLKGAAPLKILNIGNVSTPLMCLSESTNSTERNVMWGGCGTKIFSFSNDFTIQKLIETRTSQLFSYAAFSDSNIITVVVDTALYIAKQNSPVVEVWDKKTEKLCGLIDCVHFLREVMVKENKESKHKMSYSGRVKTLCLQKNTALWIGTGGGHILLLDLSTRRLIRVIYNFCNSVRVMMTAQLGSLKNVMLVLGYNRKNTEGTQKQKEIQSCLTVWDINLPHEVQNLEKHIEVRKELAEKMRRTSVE
Assay: LRRK2 degradation assay, HiBit-tagged G2019S LRRK2 expressed from plasmid in HEK293 cells (Nano-Glo Dual-Luciferase)
Type: cell-based
Details: HiBit-tagged G2019S LRRK2 in HEK293 cells, 24 hours
measured parameter: Dmax

Query (compound): CC1(Oc2ccc3[nH]nc(-c4cc(N5CCN(CCN6CCN(CC7CCN(c8ccc9c(c8)C(=O)N(C8CCC(=O)NC8=O)C9=O)CC7)CC6)CC5)ncn4)c3c2)CC1 (stereo not shown) [Compound 54] ; field requested: Dmax
≥ 70%

Query (compound): C[C@H]1CN(c2cc(-c3n[nH]c4ccc(OC5CC5)cc34)ncn2)CCN1CC1CCN(CC2CCN(c3ccc4c(c3)C(=O)N(C3CCC(=O)NC3=O)C4=O)CC2)CC1 (stereo partly shown) [Compound 72] ; field requested: Dmax
50 to 70%

Query (compound): CC1(Oc2ccc3[nH]nc(-c4cc(N5CCN(C[C@H]6CC[C@H](CN7CCN(c8ccc9c(c8)C(=O)N(C8CCC(=O)NC8=O)C9=O)CC7)CC6)CC5)ncn4)c3c2)CC1 (stereo partly shown) [Compound 101] ; field requested: Dmax
< 50%

Query (compound): C[C@H]1CN(c2cc(-c3n[nH]c4ccc(OC5(C)CC5)cc34)ncn2)CCN1CC1CCN(CC2(F)CCN(c3ccc4c(c3)C(=O)N(C3CCC(=O)NC3=O)C4=O)CC2)CC1 (stereo partly shown) [Compound 70] ; field requested: Dmax
< 50%

Query (compound): CC1(Oc2ccc3[nH]nc(-c4ccnc(N5CCOC6(CN(CC7CCN(CC8CCN(c9cccc%10c9C(=O)N(C9CCC(=O)NC9=O)C%10=O)CC8)CC7)C6)C5)c4)c3c2)CC1 (stereo not shown) [Compound 144] ; field requested: Dmax
50 to 70%

Query (compound): CC1(Oc2ccc3n[nH]c(-c4ccnc(N5CCN(C(=O)C6CCN(CC7CCN(c8ccc9c(c8)C(=O)N(C8CCC(=O)NC8=O)C9=O)CC7)CC6)CC5)c4)c3c2)CC1 (stereo not shown) [Compound 85] ; field requested: Dmax
< 50%

Query (compound): C[C@H]1CN(c2cc(-c3n[nH]c4ccc(OC5(C)CC5)cc34)ccn2)CCN1CC1(F)CCN(CC2CCN(c3ccc4c(c3)C(=O)N(C3CCC(=O)NC3=O)C4=O)CC2)CC1 (stereo partly shown) [Compound 81] ; field requested: Dmax
< 50%

Query (compound): CC1(Oc2ccc3[nH]nc(-c4cc(N5CCC(CN6CCN(CC7CCN(c8ccc9c(c8)C(=O)N(C8CCC(=O)NC8=O)C9=O)CC7)CC6)CC5)ncc4F)c3c2)CC1 (stereo not shown) [Compound 99] ; field requested: Dmax
< 50%

Query (compound): CC1(Oc2ccc3[nH]nc(-c4cc(N5CCN(CC(F)(F)C6CCN(CC7CCN(c8ccc9c(c8)C(=O)N(C8CCC(=O)NC8=O)C9=O)CC7)CC6)CC5)ncn4)c3c2)CC1 (stereo not shown) [Compound 53] ; field requested: Dmax
50 to 70%

Query (compound): C[C@H]1CN(c2cc(-c3n[nH]c4ccc(OC5(C)CC5)cc34)ncn2)CCN1CC1CCN(CC2CCN(c3cc4c(cc3F)C(=O)N(C3CCC(=O)NC3=O)C4=O)CC2)CC1 (stereo partly shown) [Compound 73] ; field requested: Dmax
< 50%
